Source of measurements: the RNAGym collection of RNA variant scans (doi:10.1002/anie.201605470)

Could you please report measured self-cleavage for the items listed next?
B1: Osa-1-4 twister ribozyme (parent)
chain: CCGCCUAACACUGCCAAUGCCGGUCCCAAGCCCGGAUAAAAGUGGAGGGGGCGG

variants of: B1; experiment: self-cleavage, relative activity (ratio to wild type); higher = more cleavage; co-transcriptional
Response field accepts a number only; no unit should be typed.

Lab note: CCGCCUAACACUGCCAAUGCCGGUCCCAAGCCCUGAUAAAAGUGGUGGGGGCGG [A46U G34U] gave self-cleavage of 0.06

Lab note: CCGCCUACCACUGCCAAUGCCGGUCCCAAGCCCGGAUAAAAGUGGAGGGGCCGG [A8C G51C] gave self-cleavage of 0.03

Lab note: CCGCCUAACACUGCCAAUGCCGGUCCCAAGCCCGCAUAGAAGUGGAGGGGGCGG [A39G G35C] gave self-cleavage of 0.22

Lab note: CCGCCUAACACUGCCAAGGCCGGUCCCAAGCCCGGAUCAAAGUGGAGGGGGCGG [A38C U18G] gave self-cleavage of 0.81

Lab note: CCGCCUAACACUGUCAAUGCCGGUCCCAAGACCGGAUAAAAGUGGAGGGGGCGG [C14U C31A] gave self-cleavage of 0.03

Lab note: CCGCCUAACACAGCCCAUGCCGGUCCCAAGCCCGGAUAAAAGUGGAGGGGGCGG [A16C U12A] gave self-cleavage of 0.71

Lab note: CCGCCUAACACUGCCAAUGCCGGUCCCAAGGCCGGAUAAAAGUGGAAGGGGCGG [C31G G47A] gave self-cleavage of 0.04

Lab note: CCGCCUAACACUGCCAAUGCCGAUCCCAAGCCCGGAUAAAAGUGGAGGGGGCCG [G23A G53C] gave self-cleavage of 0.06

Lab note: CCGCCUAACACUGCCACUGCCGGUCCCAAGCCCGGAUAAAUGUGGAGGGGGCGG [A17C A41U] gave self-cleavage of 0.81

Lab note: CCGCCUAGCACUGCCAAUGCCGGGCCCAAGCCCGGAUAAAAGUGGAGGGGGCGG [A8G U24G] gave self-cleavage of 0.03

Lab note: CCGCCUAACACUGCCAAUGCAGGUCCCAAGCCCGGAUAAAAGUUGAGGGGGCGG [C21A G44U] gave self-cleavage of 0.21

Lab note: CCGCCUAACACUGCCCAUGCCGGUCCUAAGCCCGGAUAAAAGUGGAGGGGGCGG [A16C C27U] gave self-cleavage of 0.1

Lab note: CCGCCUAACACUGCCAAUGCCGGUCCCAAGCCCGGGUAAAAGUGGAGGGGGCCG [A36G G53C] gave self-cleavage of 0.13

Lab note: CCGCCUAACUCUGCCAAUGCCGGUCCCAAGCCCGGAUAAAAGUGGAGUGGGCGG [A10U G48U] gave self-cleavage of 0.01

Lab note: CCGCCUAACACUGCCAAUGCCGGUCACAAGCCCGGGUAAAAGUGGAGGGGGCGG [A36G C26A] gave self-cleavage of 0.06

Lab note: CCGCCUAACGCUGCCAAUGCCGGUCCCAAGCCCGGAUAAAAGUGGAGGGGGCUG [A10G G53U] gave self-cleavage of 0.22

Lab note: CCGCCUAACACUGCCAAACCCGGUCCCAAGCCCGGAUAAAAGUGGAGGGGGCGG [G19C U18A] gave self-cleavage of 0.66

Lab note: CCGCCUAACACUUCCAAUGCCGGUCCCAAGCCCGGAUAAAAGUGGAGAGGGCGG [G13U G48A] gave self-cleavage of 0.01

Lab note: CCGCCUAACCCUGCCAAUGCCGGUCCCAAGACCGGAUAAAAGUGGAGGGGGCGG [A10C C31A] gave self-cleavage of 0.02

Lab note: CCGCCUAACACUGCCAAUGACGGUCCCAAGGCCGGAUAAAAGUGGAGGGGGCGG [C20A C31G] gave self-cleavage of 0.14

Lab note: CCGCCUAACAGUGCCAAUGCCGGUCCCAAGCCCGGAUAAAAGUGGAGGGGGCGC [C11G G54C] gave self-cleavage of 0.32

Lab note: CCGCCUAACACUGCCAAUUCCGGUCCCAAACCCGGAUAAAAGUGGAGGGGGCGG [G19U G30A] gave self-cleavage of 0.05

Lab note: CCGCCUAACACUCCCAAUGCCGGUCCCAAGCCCGGAUAAAAGUGGAGCGGGCGG [G13C G48C] gave self-cleavage of 0.02

Lab note: CCGCCUAACACUGCAAAUGCCGGUCCCAAGCUCGGAUAAAAGUGGAGGGGGCGG [C15A C32U] gave self-cleavage of 0.07

Lab note: CCGCCUAAAACUGCCAAUGCCGGUCCCAAGCCCGGAUAAAAGUGCAGGGGGCGG [C9A G45C] gave self-cleavage of 0.01

Lab note: CCGCCUAACACUGCCAACGCCGGUCCCAAGCCCGGAUAAAAGUGGAGGGGUCGG [G51U U18C] gave self-cleavage of 0.29

Lab note: CCGCCUAACACUUCCAAUGCCGGUCCCAAGCCCGAAUAAAAGUGGAGGGGGCGG [G13U G35A] gave self-cleavage of 0.03

Lab note: CCGCCUAACACUGCCAAUGCCGGUCCCAAGCCCGGAUCAAAGUGGAGUGGGCGG [A38C G48U] gave self-cleavage of 0.07

Lab note: CCGCCUAACACCGCCAAUGCGGGUCCCAAGCCCGGAUAAAAGUGGAGGGGGCGG [C21G U12C] gave self-cleavage of 0.04

Lab note: CCGCCUAACACUGCCAAUGCGGGUCCCAAGCCCGGAUAGAAGUGGAGGGGGCGG [A39G C21G] gave self-cleavage of 0.08

Lab note: CCGCCUAACACUGCCAAUGCCCGUCCCAAGCCCGGAUAAAAGUGGAGGAGGCGG [G22C G49A] gave self-cleavage of 0.03

Lab note: CCGCCUAACACUGCCAAUGCCGAUCCCAAGCCCGGAUAAAAGUGGAGGGGGCGC [G23A G54C] gave self-cleavage of 0.21

Lab note: CCGCCUAACACUGCCAAUGCCGGUCCUAAGCCCGGAUAGAAGUGGAGGGGGCGG [A39G C27U] gave self-cleavage of 0.11

Lab note: CCGCCUAACACUGCCAAUGCCGGUCCCGAGCCCGGAUAAAAGUGGAGGGGACGG [A28G G51A] gave self-cleavage of 0.11

Lab note: CCGCCUAACACUGCCAAUGCCGGUCCCAAGCCCGGAUAAAAGUGGAGAGCGCGG [G48A G50C] gave self-cleavage of 0.09

Lab note: CCGCCUAACACUGCCUAUGCCGGUGCCAAGCCCGGAUAAAAGUGGAGGGGGCGG [A16U C25G] gave self-cleavage of 0.08

Lab note: CCGCCUAACACUGCCAAUGCCGGUCCCAGGGCCGGAUAAAAGUGGAGGGGGCGG [A29G C31G] gave self-cleavage of 0.05
